assayed_target: human GPRC5D (human, UniProt Q9NZD1 1-345)
Sequence (Q9NZD1 whole entry): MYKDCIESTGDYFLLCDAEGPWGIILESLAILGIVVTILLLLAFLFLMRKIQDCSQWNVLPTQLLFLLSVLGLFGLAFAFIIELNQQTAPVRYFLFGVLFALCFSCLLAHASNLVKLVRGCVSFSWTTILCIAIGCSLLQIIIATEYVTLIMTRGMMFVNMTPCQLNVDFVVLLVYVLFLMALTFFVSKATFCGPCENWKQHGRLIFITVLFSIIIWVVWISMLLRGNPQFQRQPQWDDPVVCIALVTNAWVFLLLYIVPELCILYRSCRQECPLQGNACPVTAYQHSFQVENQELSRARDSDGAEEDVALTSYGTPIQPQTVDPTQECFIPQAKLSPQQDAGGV
assay_details: cell-based or functional assay

>  <binder>
P1AE5746 (antibody, V domains shown) VH: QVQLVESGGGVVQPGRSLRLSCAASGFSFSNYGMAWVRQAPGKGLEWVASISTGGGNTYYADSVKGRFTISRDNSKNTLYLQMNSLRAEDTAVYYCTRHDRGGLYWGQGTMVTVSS VL: DIVMTQSPLSLPVTPGEPASISCRSSKSLLHSNGITYVYWYLQKPGQSPQLLIYRMSNRASGVPDRFSGSGSGTDFTLKISRVEAEDVGVYHCGQLLENPYTFGQGTKLEIK

>  <CAR-J2 EC50, µg/mL>
0.514

$$$$
>  <binder>
P1AE5753 (antibody, V domains shown) VH: EVQLVESGGGVVQPGRSLRLSCAASGFSFSNYGMAWVRQAPGKGLEWVASISTGGGNTYYADSVKGRFTISRDNAKNTLYLQMNSLRAEDTAVYYCTRHDRGGLYWGQGTMVTVSS VL: DIVMTQSPDSLAVSLGERATINCKSSKSLLHSNGITYVYWYQQKPGQPPKLLIYRMSNLASGVPDRFSGSGSGTDFTLTISSLQAEDVAVYHCGQLLENPYTFGQGTKLEIK

>  <CAR-J2 EC50, µg/mL>
0.03

$$$$

Data origin: patent US20220411491A1
